Entries and their pEC50 values follow.
# TARGET DESC: AMPK
# EXPERIMENT: AMPK activation, enzyme-linked immunosorbent assay
# Assay type: biochemical
# PROTOCOL CONDITIONS: compounds of Table 2 (Table 7)
pEC50: −log10 of the molar value.

Worked cases, pEC50 given:
O=C(NC1CCN(S(=O)(=O)c2ccc(F)cc2)CC1)c1ccc2[nH]c3c(c2c1)CN(c1ccc(F)cc1)CC3 4.30 to 5.00
Cn1c2c(c3cc(C(=O)NC4CCN(Cc5ccc(C(F)(F)F)cc5)CC4)ccc31)CN(Cc1ccc(C(F)(F)F)cc1)CC2 6.00 to 6.30

Could you tell me which pEC50 is on file for N#Cc1cccc(S(=O)(=O)N2CCC(NC(=O)c3ccc4[nH]c5c(c4c3)CN(Cc3ccc(C(F)(F)F)cc3)CC5)CC2)c1 ?
5.30 to 6.00

Could you tell me which pEC50 is on file for O=C(NC1CCN(S(=O)(=O)c2ccc(C(F)(F)F)cc2)CC1)c1ccc2[nH]c3c(c2c1)CN(Cc1ccc(C(F)(F)F)cc1)CC3 ?
5.30 to 6.00

Could you tell me which pEC50 is on file for NC(=O)c1ccc(CN2CCC(NC(=O)c3ccc4[nH]c5c(c4c3)CN(Cc3ccc(C(F)(F)F)cc3)CC5)CC2)cc1 ?
5.30 to 6.00

Could you tell me which pEC50 is on file for O=C(NC1CCN(Cc2cccnc2)CC1)c1ccc2[nH]c3c(c2c1)CN(Cc1ccc(F)cc1)CC3 ?
5.00 to 5.30

Could you tell me which pEC50 is on file for NC(=O)c1ccc(CN2CCc3[nH]c4ccc(C(=O)NC5CCN(Cc6ccc(F)cc6)CC5)cc4c3C2)cc1 ?
< 4.00

Attribution: patent US9511058B2
